# Assay Overview: Inhibition of gamma secretase assessed as reduction in Abeta42 production
Below: a set of entries, each annotated with reported IC50.
Answers without a unit are incomplete; give the number and then its unit.

{"Compound": "CC(C)CC(C(=O)O)c1cc(-c2ccc(C(F)(F)F)cc2)cc(C2CCCC(C(F)(F)F)N2Cc2ccc(C(F)(F)F)cc2)c1 (centres undefined)", "IC50": "310 nM"}
{"Compound": "COc1cc(/C=C2\\CCCN(Cc3cccc(F)c3)C2=O)ccc1-n1cnc(C)c1", "IC50": "200 nM"}
{"Compound": "CC(C)CC(C(=O)O)c1cc(Oc2cc(F)cc(F)c2)cc(-c2ccc(C(F)(F)F)cc2)c1 (centres undefined)", "IC50": "770 nM"}
{"Compound": "CC(C)CCN(Cc1ccc(C(F)(F)F)cc1)Cc1cc(-c2ccc(C(F)(F)F)cc2)cc(C(CC(C)C)C(=O)O)c1 (centres undefined)", "IC50": "220 nM"}
{"Compound": "COc1cc(/C=C/c2nc3n(n2)CCC[C@@H]3c2cccc(F)c2)ccc1-n1cnc(C)c1", "IC50": "28 nM"}
{"Compound": "COc1cc(Nc2cccc3c2nc(-c2ccc(F)cc2)n3C(C)C)ccc1-c1ccnc(C)c1", "IC50": "39 nM"}
{"Compound": "COc1cc(/C=C/C(=O)NCc2cccc(-c3ccccc3)c2)ccc1-n1cnc(C)c1", "IC50": "70 nM"}
{"Compound": "COc1cc(/C=C/c2nnc(C(C)c3ccc(F)cc3)[nH]2)ccc1-n1cnc(C)c1 (centres undefined)", "IC50": "33 nM"}

Please look at the following compound next.
Recorded IC50 for CC(C)C[C@@H](C(=O)O)c1cc(Nc2cc(C(F)(F)F)ccc2C(F)(F)F)cc(-c2ccc(C(F)(F)F)cc2)c1 , please? 100 nM
